- STUDY TARGET: D(3) dopamine receptor (Homo sapiens)
- Sequence (P35462 as listed by the source): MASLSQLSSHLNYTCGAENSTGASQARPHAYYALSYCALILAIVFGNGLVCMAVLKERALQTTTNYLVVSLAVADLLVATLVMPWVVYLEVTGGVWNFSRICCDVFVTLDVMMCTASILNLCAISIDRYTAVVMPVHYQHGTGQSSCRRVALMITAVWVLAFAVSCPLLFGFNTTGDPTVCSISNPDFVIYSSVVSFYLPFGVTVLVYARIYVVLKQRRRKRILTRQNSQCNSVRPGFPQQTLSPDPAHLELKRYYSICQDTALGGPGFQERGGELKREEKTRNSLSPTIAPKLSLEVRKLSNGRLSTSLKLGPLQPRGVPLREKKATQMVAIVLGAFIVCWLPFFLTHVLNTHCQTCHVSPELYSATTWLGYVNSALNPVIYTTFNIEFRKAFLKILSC
compounds and their reported Ki
Return type: number; implicit unit nM.

In the examples that follow, each entry is paired with its recorded Ki.
| COMPOUND | READOUT VALUE |
| --- | --- |
| CN(C)S(=O)(=O)c1ccc2c(c1)N(CCCN1CCC(CCO)CC1)c1ccccc1S2 | 0.28 |
| NC(=O)C1(N2CCCCC2)CCN(CCCN2c3ccccc3CCc3ccccc32)CC1 | 15 |
| Nc1nc2c(ncn2[C@@H]2O[C@H](COP(=O)(O)OP(=O)(O)NP(=O)(O)O)[C@@H](O)[C@H]2O)c(=O)[nH]1 [Guanylyl imidodiphosphate] | 34 |
| CCCN[C@@H]1CCc2c(OC)cccc2[C@@H]1C | 139 |

Next:
Problem: # lookup: D(3) dopamine receptor (Homo sapiens) Ki, key = CCCN(CCC)C1C=Cc2c(OC)cccc2C1C (stereo not given)
Result: 11
